Experiment: Determination of acute toxicity (seven-day, single intraperitoneal dose)
Settings: in vivo, ip, fasting white NMRI mouse, single dose i.p., probit analysis, read-out: LP50 i.p.
Response field label: string, one of 1 (LD50 at 168 h strictly below 500 mg/kg) or 0.

// below: answered compounds
Compound	Assigned Class
CNC1=CC(=O)c2ccc(Cl)cc2OC1	1
CNC1=CC(=O)c2ccccc2OC1 [A, 3-methylamino-1-benzoxepin-5(2H)-one]	0
NC1=CC(=O)c2ccccc2OC1 [D, 3-amino-1-benzoxepin-5(2H)-one]	0
O=C1C=C(N2CCN(Cc3ccccc3)CC2)COc2ccccc21	0
CC(C)NC1=CC(=O)c2ccccc2OC1 [C, 3-isopropylamino-1-benzoxepin-5(2H)-one]	0
O=C1C=C(N2CCOCC2)COc2ccccc21 [H, 3-morpholino-1-benzoxepin-5(2H)-one]	0

// switching to the query compound
Check if LD50 at 168 h falls below 500 mg/kg for CCCCNC1=CC(=O)c2ccccc2OC1 [E, 3-(n-butylamino)-1-benzoxepin-5(2H)-one] . 1

====

System: gastric peristalsis
Assay: Testing of the gastric peristalsis (gastric pressure, barium chloride-stimulated stomach of narcotized rats)
Format: in vivo
Conditions: Rattus norvegicus, ip, 20 mg/kg intraperitoneally, BaCl2 50 mg/kg/h i.v. infusion, compared with control value before compound, read-out: Frequency Decrease in %
Hi there, I'd appreciate the recorded change in vivo at 20 mg/kg for every entry that follows.
Give the value; after it, write the unit.

Please review the entries below; each comes with its answer.
Molecule	change in vivo at 20 mg/kg
O=C1C=C(N2CCOCC2)COc2ccccc21 [H, 3-morpholino-1-benzoxepin-5(2H)-one]	17%
CNC1=CC(=O)c2ccc(C)cc2OC1	4%
CNC1=CC(=O)c2ccc(Cl)cc2OC1	-16%

Kindly review the next molecule as well.
If you can, please state the reported change in vivo at 20 mg/kg value of "CNC1=CC(=O)c2cc(C)ccc2OC1" . 15%

====

For each entry below, report its change in vivo at 20 mg/kg value.
Test system: gastric peristalsis
Experiment: Testing of the gastric peristalsis (gastric pressure, barium chloride-stimulated stomach of narcotized rats)
Format: in vivo
Conditions: Rattus norvegicus, ip, 20 mg/kg intraperitoneally, BaCl2 50 mg/kg/h i.v. infusion, compared with control value before compound, read-out: Frequency Decrease in %
Description: To determine the functioning of the gastric peristalsis, rats weighing about 200 g are narcotized by means of ketamine hydrochloride and xylazine. A catheter is introduced into the Vena jugularis of the narcotized rats and a tracheal catheter into the trachea. […] In conducting the test, a control value is obtained by inducing a stimulation of the stomach through a lengthy intravenous infusion of 50 mg/kg/h of bariumchloride and the amplitude and frequency of resultant pressure waves are measured. […]
Give bare numbers, in %.

Compound	change in vivo at 20 mg/kg [%]
CNC1=CC(=O)c2cc(F)ccc2OC1	1
NC1=CC(=O)c2ccccc2OC1 [D, 3-amino-1-benzoxepin-5(2H)-one]	-12
CC(C)NC1=CC(=O)c2ccccc2OC1 [C, 3-isopropylamino-1-benzoxepin-5(2H)-one]	-2
COCCNC1=CC(=O)c2ccccc2OC1	11
O=C1C=C(NCCc2ccccc2)COc2ccccc21 [Compound F, 3-phenethylamino-1-benzoxepin-5(2H)-one]	-7
CNC1=CC(=O)c2ccc(C(C)(C)C)cc2OC1	10

Take each entry in turn and give its change in vivo at 20 mg/kg.
1. CCCCNC1=CC(=O)c2ccccc2OC1 [E, 3-(n-butylamino)-1-benzoxepin-5(2H)-one]
2. CNC1=CC(=O)c2cc(Cl)ccc2OC1
3. CNC1=CC(=O)c2ccccc2OC1 [A, 3-methylamino-1-benzoxepin-5(2H)-one]
4. O=C1C=C(N2CCN(Cc3ccccc3)CC2)COc2ccccc21

1. 36
2. -1
3. -18
4. 10
